Please respond with reported Photobleaching rate (Relative to unsubstituted dye) for every item in the list.
Assay: Photobleaching rate under white light from a xenon lamp
Format: physicochemical
Settings: single exponential decay fit of absorbance

Supply Photobleaching rate (Relative to unsubstituted dye) value. Item: `CCCCN(CCCC)c1ccc2cc(/C=C(\F)c3cc[n+](CCC[N+](CC)(CC)CC)cc3)ccc2c1`
0.63

Supply Photobleaching rate (Relative to unsubstituted dye) value. Item: `CCCCN(CCCC)c1ccc2cc(/C=C/c3cc[n+](CCC[N+](CC)(CC)CC)cc3F)ccc2c1F`
0.91

Supply Photobleaching rate (Relative to unsubstituted dye) value. Item: `CCCCN(CCCC)c1ccc2cc(/C=C/c3c(F)c[n+](CCC[N+](CC)(CC)CC)c4ccccc34)ccc2c1`
5.26

* * *

Assay: One-photon absorption spectra of dyes (λmax abs, logε)
Assay type: physicochemical
Conditions: PBS buffer
Please respond with reported λmax abs for every item in the list.
Reply with just the number (in nm).

Supply λmax abs value. Item: `CCCCN(CCCC)c1ccc2cc(/C=C(\F)c3cc[n+](CCC[N+](CC)(CC)CC)cc3F)ccc2c1`
513

Supply λmax abs value. Item: `CCCCN(CCCC)c1ccc2cc(/C=C/c3cc[n+](CCC[N+](CC)(CC)CC)cc3F)ccc2c1`
506

Supply λmax abs value. Item: `CCCCN(CCCC)c1ccc2cc(/C=C(\F)c3cc[n+](CCC[N+](CC)(CC)CC)cc3)ccc2c1C(F)(F)F`
395

Supply λmax abs value. Item: CCCCN(CCCC)c1ccc2cc(/C=C/c3c(F)c[n+](CCC[N+](CC)(CC)CC)c4ccccc34)ccc2c1 [PY4221]
537

Supply λmax abs value. Item: `CCCCN(CCCC)c1ccc2cc(/C=C/c3cc[n+](CCC[N+](CC)(CC)CC)cc3)ccc2c1C(F)(F)F`
430

Supply λmax abs value. Item: `CCCCN(CCCC)c1ccc2cc(/C=C(\F)c3cc[n+](CCC[N+](CC)(CC)CC)cc3F)ccc2c1F`
408

Supply λmax abs value. Item: CCCCN(CCCC)c1ccc2cc(/C=C/c3c(F)c[n+](CCC[N+](CC)(CC)CC)c4ccccc34)ccc2c1 [PY3304]
565

* * *

Test: Fluorescence emission spectra and fluorescence quantum yield (FQY) of dyes
Format: physicochemical
Details: Lipid vesicles
assay_readout: λmax em (nm)
Reply with just the number (in nm).

Supply λmax em value. Item: `CCCCN(CCCC)c1ccc2cc(/C=C/c3c(F)c[n+](CCC[N+](CC)(CC)CC)cc3F)ccc2c1`
646

Supply λmax em value. Item: `CCCCN(CCCC)c1ccc2cc(/C=C(\F)c3cc[n+](CCC[N+](CC)(CC)CC)cc3F)ccc2c1`
660

Supply λmax em value. Item: `CCCCN(CCCC)c1ccc2cc(/C=C(\F)c3cc[n+](CCC[N+](CC)(CC)CC)cc3)ccc2c1F`
643

Supply λmax em value. Item: CCCCN(CCCC)c1ccc2cc(/C=C/c3c(F)c[n+](CCC[N+](CC)(CC)CC)c4ccccc34)ccc2c1 [PY3304]
686

Supply λmax em value. Item: `CCCCN(CCCC)c1ccc2cc(/C=C/c3cc[n+](CCC[N+](CC)(CC)CC)cc3F)ccc2c1`
632

* * *

Assay: Fluorescence emission spectra and fluorescence quantum yield (FQY) of dyes
Assay type: physicochemical
Conditions: Lipid vesicles
Parameter threshold = 0.2. Response is True when FQY meets or exceeds it, else False.

Determine whether measured FQY meets or exceeds 0.2 for `CCCCN(CCCC)c1ccc2cc(/C=C(\F)c3cc[n+](CCC[N+](CC)(CC)CC)cc3F)ccc2c1F`
True

Determine whether measured FQY meets or exceeds 0.2 for CCCCN(CCCC)c1ccc2cc(/C=C/c3c(F)c[n+](CCC[N+](CC)(CC)CC)c4ccccc34)ccc2c1 [PY4221]
False

Determine whether measured FQY meets or exceeds 0.2 for `CCCCN(CCCC)c1ccc2cc(/C=C/c3cc[n+](CCC[N+](CC)(CC)CC)cc3F)ccc2c1F`
True

Determine whether measured FQY meets or exceeds 0.2 for `CCCCN(CCCC)c1ccc2cc(/C=C(\F)c3cc[n+](CCC[N+](CC)(CC)CC)cc3)ccc2c1C(F)(F)F`
True

Determine whether measured FQY meets or exceeds 0.2 for `CCCCN(CCCC)c1ccc2cc(/C=C/c3cc[n+](CCC[N+](CC)(CC)CC)cc3)ccc2c1F`
True
